These measurements were taken from PubChem BioAssay (EPA / NIEHS).

# Read-out: Cellular tumor antigen p53 (Homo sapiens) (UniProt P04637)
# Sequence (P04637 whole entry, looked up): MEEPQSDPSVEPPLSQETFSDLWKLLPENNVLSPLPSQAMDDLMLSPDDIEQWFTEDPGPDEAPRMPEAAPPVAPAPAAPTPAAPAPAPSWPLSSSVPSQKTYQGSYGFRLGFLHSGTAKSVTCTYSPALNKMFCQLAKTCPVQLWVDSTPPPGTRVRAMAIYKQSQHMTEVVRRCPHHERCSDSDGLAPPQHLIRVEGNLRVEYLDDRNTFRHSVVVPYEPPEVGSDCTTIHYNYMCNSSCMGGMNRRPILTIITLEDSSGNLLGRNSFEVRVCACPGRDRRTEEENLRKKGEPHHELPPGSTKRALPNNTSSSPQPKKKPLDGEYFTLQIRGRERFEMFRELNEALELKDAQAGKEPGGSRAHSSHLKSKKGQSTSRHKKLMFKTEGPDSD
# EXPERIMENTAL_DETAILS: LTEA_HepaRG_TP53: Life Technologies and Expression Analysis (LTEA) Assay for Tumor Protein P53 (TP53) using HepaRG (AID 2283537)
# MEASUREMENT_SETUP: mRNA level, 48 h; actives raise or lower the signal
Active and inactive are the calls of the source. The calls were made as follows: active = hit-call score of the fitted dose curve at least 0.9, where 1 is the maximum; inactive = score below 0.9.
Hi! Could you answer with just one of these? yes (1) for active, no (0) for inactive

Query :: Test call, this molecule: "Oc1ccccc1O"
Result :: no (0)

Query :: Would you mind telling me which call this test gave "Cc1cc(SC2=C(O)C[C@@](CCc3ccc(N)cc3)(C(C)C)OC2=O)c(C(C)(C)C)cc1CO" ?
Result :: no (0)

Query :: Just curious, what result did "Oc1ccc(O)cc1" get here?
Result :: no (0)

Query :: Called result for "NCCOCCOCCN"
Result :: no (0)

Query :: Answer briefly: the call reported for "CCOCCOCCO" in this assay.
Result :: no (0)

Query :: Dear colleague, could you share the recorded outcome for Cc1c(C)c2c(c(C)c1O)CCC(C)(COc1ccc(CC3SC(=O)NC3=O)cc1)O2 (stereo not drawn) when you have a moment?
Result :: no (0)

Query :: # lookup: test call for "NC(=Nc1ccccc1)Nc1ccccc1"
Result :: no (0)

Query :: Record request — test call for "CCc1cc(C2=C(C(=O)O)N(c3ccccc3C(F)(F)F)S(=O)(=O)c3ccccc32)cc2c1OCO2"
Result :: yes (1)
